# system: IDH1 R132H (Homo sapiens, UniProt O75874, R132H)
# Sequence (O75874 whole entry R132H): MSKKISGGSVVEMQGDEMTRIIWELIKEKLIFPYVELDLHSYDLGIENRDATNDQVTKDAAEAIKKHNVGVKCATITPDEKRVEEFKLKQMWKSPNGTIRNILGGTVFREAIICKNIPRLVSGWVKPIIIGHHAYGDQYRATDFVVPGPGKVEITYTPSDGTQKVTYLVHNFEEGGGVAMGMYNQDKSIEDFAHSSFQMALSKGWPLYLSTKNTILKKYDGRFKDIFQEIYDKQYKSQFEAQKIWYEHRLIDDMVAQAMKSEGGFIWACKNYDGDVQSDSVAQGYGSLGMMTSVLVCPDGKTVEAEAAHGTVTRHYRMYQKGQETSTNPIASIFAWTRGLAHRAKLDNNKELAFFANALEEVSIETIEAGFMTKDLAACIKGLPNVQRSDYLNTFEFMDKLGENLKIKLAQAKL
# assay.name: IDH1 R132H enzymatic assay (NADPH depletion coupled to diaphorase/resazurin)
# Type: biochemical
# condition: IDH1 R132H enzymatic inhibition, IC50 class
pIC50: −log10 of the molar value.
The reader will find reported pIC50 values listed item by item below.

Reference set, count: 6
[
  {
    "compound": "COc1cccc(CN2CCN(C)CC2)c1-n1c2c(cc(-c3nc(-c4ccc(Cl)cc4)cs3)c1=O)C(=O)CC(C)(C)C2 [Compound 319]",
    "system": "IDH1 R132H (Homo sapiens, UniProt O75874, R132H)",
    "observed": "4.70 to 5.30"
  },
  {
    "compound": "CCOC(=O)c1cc(-c2nc(-c3ccc(Cl)cc3)cs2)c(=O)n(-c2c(CC)cccc2CC)c1-c1ccccc1 [Compound 3]",
    "system": "IDH1 R132H (Homo sapiens, UniProt O75874, R132H)",
    "observed": "< 4.70"
  },
  {
    "compound": "COc1ccc(OC)c(-n2c3c(cc(-c4nc(-c5ccc(Cl)cc5)cs4)c2=O)C(=O)CNC3)c1 [Compound 280]",
    "system": "IDH1 R132H (Homo sapiens, UniProt O75874, R132H)",
    "observed": "4.70 to 5.30"
  },
  {
    "compound": "CC(=O)Nc1ccccc1-n1c2c(cc(-c3nc(-c4ccc(Cl)cc4)cs3)c1=O)C(=O)CC(C)(C)C2 [Compound 105]",
    "system": "IDH1 R132H (Homo sapiens, UniProt O75874, R132H)",
    "observed": "5.30 to 6.00"
  },
  {
    "compound": "CCc1cccc(CC)c1-n1c(C(C)C)c(C(=O)NC2CCNCC2)cc(-c2nc(-c3ccc(Cl)cc3)cs2)c1=O [Compound 35]",
    "system": "IDH1 R132H (Homo sapiens, UniProt O75874, R132H)",
    "observed": "5.30 to 6.00"
  },
  {
    "compound": "CCc1cccc(CC)c1-n1c(C(C)(C)F)c(C(=O)N2CCNCC2)cc(-c2nc(-c3ccc(Cl)cc3)cs2)c1=O [Compound 664]",
    "system": "IDH1 R132H (Homo sapiens, UniProt O75874, R132H)",
    "observed": "6.00 to 6.52"
  }
]

Query: pIC50 for CCc1cccc(CC)c1-n1c2c(cc(-c3nc(-c4ccccc4C)cs3)c1=O)C(=O)CC(C)(C)C2 [Compound 173] ?
Response: 5.30 to 6.00

Query: pIC50 for COc1cccc(C(=O)O)c1-n1c2c(cc(-c3nc(-c4ccc(Cl)cc4)cs3)c1=O)C(=O)CC(C)(C)C2 [Compound 46] ?
Response: 5.30 to 6.00

Query: pIC50 for CCc1cccc(CC)c1-n1c(C=C(C)C)c(C(=O)N2CCNCC2)cc(-c2nn(-c3ccc(Cl)cc3)cc2Cl)c1=O [Compound 345] ?
Response: 5.30 to 6.00

Query: pIC50 for CCc1cccc(CC)c1-n1c(CC(C)C)c(C(=O)N[C@H](C)CO)cc(-c2nc(-c3ccc(Cl)cc3)cs2)c1=O [Compound 64] ?
Response: 5.30 to 6.00

Query: pIC50 for CCc1cccc(CC)c1-n1c(CC)c(C(=O)O)cc(-c2nc(-c3ccc(Cl)cc3)cs2)c1=O [Compound 236] ?
Response: 5.30 to 6.00

Query: pIC50 for COc1ccc(OC)c(-n2cccc(-c3nc(-c4ccc(Cl)cc4)cs3)c2=O)c1 [Compound 78] ?
Response: < 4.70

Query: pIC50 for Cc1noc(C)c1-n1c2c(cc(-c3nc(-c4ccc(Cl)cc4)cs3)c1=O)C(=O)CC(C)(C)C2 [Compound 13] ?
Response: < 4.70

Query: pIC50 for CCc1cccc(CC)c1-n1c(CC(C)C)c(C(=O)N2CCC(CO)C2)cc(-c2nc(-c3ccc(Cl)cc3)cs2)c1=O (centres unmarked) [Compound 89] ?
Response: 5.30 to 6.00

====

The reader will find reported pIC50 values listed item by item below.
# system: IDH1 R132C (Homo sapiens, UniProt O75874, R132C)
# Sequence (O75874 whole entry R132C): as the sequence (O75874 whole entry R132H) above, with H132C counted along it
# assay.name: IDH1 R132C enzymatic assay (NADPH depletion coupled to diaphorase/resazurin)
# Type: biochemical
# condition: IDH1 R132C enzymatic inhibition, IC50 class
pIC50: −log10 of the molar value.

Reference set, count: 4
[
  {
    "compound": "CCc1cccc(CC)c1-n1c(C)c(C(=O)NC[C@@H](C)O)cc(-c2nc(-c3ccc(Cl)cc3)cs2)c1=O [Compound 151]",
    "experimental.endpoint": "pIC50",
    "observed": "6.00 to 6.52"
  },
  {
    "compound": "CCc1cccc(CC)c1-n1c(CC(C)C)c(C(=O)N2CCNCC2)cc(-c2nc(-c3ccc(Cl)cc3)cs2)c1=O [Compound 231]",
    "experimental.endpoint": "pIC50",
    "observed": "> 6.52"
  },
  {
    "compound": "CCc1cccc(CC)c1-n1c(CC(C)C)c(C(=O)N2CCNCC2)cc(-c2nc(-c3ccc(C(=O)N4CCOCC4)cc3)c(C)s2)c1=O [Compound 87]",
    "experimental.endpoint": "pIC50",
    "observed": "4.70 to 5.30"
  },
  {
    "compound": "COC(=O)c1ccsc1-n1c2c(cc(-c3nc(-c4ccc(Cl)cc4)cs3)c1=O)C(=O)CC(C)(C)C2 [Compound 652]",
    "experimental.endpoint": "pIC50",
    "observed": "6.00 to 6.52"
  }
]

Query: pIC50 for CC1(C)CC(=O)c2cc(-c3nc(-c4ccc(Cl)cc4)cs3)c(=O)n(-c3ccccc3C(F)(F)F)c2C1 [Compound 57] ?
Response: > 6.52

Query: pIC50 for CCc1cccc(CC)c1-n1c(C)c(C(=O)N2CCNC(=O)C2)cc(-c2nc(-c3ccc(Cl)cc3)cs2)c1=O [Compound 138] ?
Response: 5.30 to 6.00

Query: pIC50 for CCc1ncc(F)cc1-n1c(C=C(C)C)c(C(=O)N2CCNCC2)cc(-c2nc(-c3ccc(C(F)(F)F)cc3)cs2)c1=O [Compound 328] ?
Response: > 6.52

====

# system: IDH1 R132H (Homo sapiens, UniProt O75874, R132H)
# assay.name: IDH1 R132H enzymatic assay (NADPH depletion coupled to diaphorase/resazurin)
# Type: biochemical
# condition: enzymatic inhibition, IDH1 R132H
experimental.endpoint: IC50

Reference set, count: 3
[
  {
    "smiles": "COc1ccncc1-n1c2c(cc(-c3nc(-c4ccc(Cl)cc4)cs3)c1=O)C(=O)CC(C)(C)C2",
    "experimental.endpoint": "IC50",
    "observed": "> 20000 nM"
  },
  {
    "smiles": "CC(C)=Cc1c(C(=O)N2CCNCC2)cc(-c2nc(-c3ccc(Cl)cc3)cs2)c(=O)n1-c1cc(F)ccc1Cl",
    "experimental.endpoint": "IC50",
    "observed": "< 300 nM"
  },
  {
    "smiles": "C=Cc1sc(-c2cc(C(=O)N3CCNCC3)c(CC(C)C)n(-c3c(CC)cccc3CC)c2=O)nc1-c1ccc(Cl)cc1",
    "experimental.endpoint": "IC50",
    "observed": "300 to 1000 nM"
  }
]

Query: IC50 for Cc1c(CO)cccc1-n1c2c(cc(-c3nc(-c4ccc(Cl)nc4)cs3)c1=O)C(=O)CCC2 ?
Response: 5000 to 20000 nM

Query: IC50 for CC(C)=Cc1c(C(=O)N2CCNCC2)cc(-c2nc(-c3ccc(Cl)cc3)cs2)c(=O)n1-c1ccccc1C ?
Response: < 300 nM

Query: IC50 for CCc1cccc(CC)c1-n1c(C=C(C)C)c(C(=O)N2CCNCC2)cc(-c2ccn(-c3ccc(C(F)(F)F)cc3)n2)c1=O ?
Response: < 300 nM

Query: IC50 for CCc1cccc(CC)c1-n1c(C=C(C)C)c(C(=O)N2CCN[C@@H](C(=O)O)C2)cc(-c2nc(-c3ccc(C(F)(F)F)cc3)cs2)c1=O ?
Response: < 300 nM

Query: IC50 for CCOc1cccc(CC)c1-n1c(C=C(C)C)c(C(=O)N2CCNCC2)cc(-c2nc(-c3ccc(Cl)cc3)cs2)c1=O ?
Response: < 300 nM

Query: IC50 for COc1ncccc1-n1c(C=C(C)C)c(C(=O)N2CCNCC2)cc(-c2nc(-c3ccc(Cl)cc3)cs2)c1=O ?
Response: < 300 nM

====

# system: IDH1 R132H (Homo sapiens, UniProt O75874, R132H)
# assay.name: IDH1 R132H enzymatic assay (NADPH depletion coupled to diaphorase/resazurin)
# Format: biochemical
# condition: IDH1 R132H enzymatic inhibition, IC50 class
The reader will find reported IC50 values listed item by item below.

[
  {
    "smiles": "CC(C)=Cc1c(C(=O)N2CCNCC2)cc(-c2nc(-c3ccc(Cl)cc3)cs2)c(=O)n1-c1c(Cl)cccc1Cl",
    "IC50": "< 0.3 µM"
  },
  {
    "smiles": "COc1ccc(OC)c(-n2c3c(cc(-c4nc(-c5ccccc5)cs4)c2=O)C(=O)CC(C)(C)C3)c1",
    "IC50": "1 to 5 µM"
  }
]

Query: IC50 for CCc1cccc(CC)c1-n1c(CC)c(C(=O)NC)cc(-c2nc(-c3ccc(Cl)cc3)cs2)c1=O ?
Response: 0.3 to 1 µM
